- target_under_test: T1, human CD8A-Fc (in house) (human, UniProt P01732 22-182, limits assumed)
- T1 construct: captured by goat anti-human Fc on the ProteOn chip; also called hCD8A-Fc; recombinant human CD8 alpha; not shown: linker/tag and Fc of human IgG1
- assay_summary: SPR (ProteOn), captured hCD8A-Fc
quantity_measured: koff (s⁻¹)

binder	koff (s⁻¹)
P283FR9P1366_F5 (designed binder, FN3 domain) LPAPKNLVVSRVTEDSARLSWTAPDAAFDSFDIGYPEWPIKGEAIVLTVPGSERSYDLTGLKPGTEYWVIIWGVKGGDRSEPLSAIFTT	0.00104
P283HR7P1368_D4 (designed binder, FN3 domain) LPAPKNLVVSRVTEDSARLSWTAPDAAFDSFAIWCVEPIPEGEAIPLFVPGSERSYDLTGLKPGTEYRVGIRGVKGGTFSSPLAAPFTT	0.000235
P283BR9P1363_G7 (designed binder, FN3 domain) LPAPKNLVVSRVTEDSARLSWSAKKFPRHFDSFLIQYQESEKVGEAIVLTVPGSERSYDLTGLKPGTEYTVSIYGVDVKWEGNRPVASNPLSAIFTT	4.01e-05
P283HR7P1368_F6 (designed binder, FN3 domain) LPAPKNLVVSRVTEDSARLSWTAPDAAFDSFGIGYIEWVHRGEAISLHVPGSERSYDLTGLKPGTEYVVAIVGVKGGEPSTPLGAPFTT	0.00018

(P) P283FR9P1366_H3 (designed binder, FN3 domain) LPAPKNLVVSRVTEDSARLSWTAPDAAFDSFAIAYPEWPIKGEAIVLTVPGSERSYDLTGLKPGTEYWVVIYGVKGGVFSEPLSAIFTT
(Q) P283FR9P1366_A1 (designed binder, FN3 domain) LPAPKNLVVSRVTEDSARLSWTAPDAAFDSFWITYPEWPVPGEAIVLTVPGSERSYDLTGLKPGTEYAVFIWGVKGGDASEPLSAIFTT
Qu. When the recorded koff values are compared, which is smaller: that of P or that of Q ? Please identify the chosen entry by its label.
Ans. P

(P) P283FR9P1366_G1 (designed binder, FN3 domain) LPAPKNLVVSRVTEDSARLSWTAPDAAFDSFYISYPELPVEGEAIVLTVPGSERSYDLTGLKPGTEYWVIIWGVKGGATSEPLSAIFTT
(Q) P283DR9P1364_H9 (designed binder, FN3 domain) LPAPKNLVVSRVTEDSARLSWTAPDAAFDSFSISYIEYPEIPGGEAIVLTVPGSERSYDLTGLKPGTEYWVPIWGVKGGIQSWPLSAIFTT
Qu. When the recorded koff values are compared, which is smaller: that of P or that of Q ? Please identify the chosen entry by its label.
Ans. Q
(Q: 0.000271 s⁻¹, P: 0.000872 s⁻¹)

These entries and their values trace back to patent US20210032312A1.
